FYI, the data here is from the supplement of paper PMC10567573.

Assay: protein stability index of a GFP-peptide fusion (GPS, HEK-293T) (PSI 1-6); higher = more stable;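 note: 24-mer peptide tiles fused after GFP, lentivirally expressed, FACS-sorted into six equal bins by GFP/DsRed ratio, decoded by Illumina sequencing, PSI is the read-weighted mean bin number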
Conditions: treatment: MLN4924 1 uM, 8 h; c terminus: a fixed tail appended
measured-parameter: protein stability index
Would you mind answering with just the numeric figure?

Take a look at these entries with their results.
RRWHKSRLLQASGGGLTGVSGSHF [PCDHGA10] : 2.83
SGFWGVARHFNYVGDLMGSLAYCL [DHCR7] : 2.07
SCVIPLRHGGLSLVQTTDFFYPLV [SEPHS2] : 2.31

# context switch: different sequence, same protein stability index
(Q) Sample RAASAMQFFTKGYQETISDVLNDA [GCH1] — what was its protein stability index?
(A) 3.53

---

Test: protein stability index of a GFP-peptide fusion (GPS, HEK-293T) (PSI 1-6); higher = more stable
Conditions: treatment: MLN4924 1 uM, 8 h; c terminus: a fixed tail appended
Note to self: values exactly at 3 are TRUE. So protein stability index at or above 3 is TRUE, below is FALSE.

Example entries begin here.
HRRRNQLIKKKKEELEAKRLQCPF [FAM107A] : TRUE
PTVDLNQVLNETRSQYEALVETNR [KRT34] : TRUE
SLRSSSSKLAQLTLEQILEHLDNL [INTS3] : FALSE
RGPPRGLRGGRGGSGGTRGPPSRG [RBMX] : TRUE
GAGDWREKEAKDLTELVQRRITYL [FUT8] : TRUE
SDTPYDSSASYEKENEMMKSHVMD [IKZF1] : TRUE
APFTDEQLYMEQFTKANFWYQPSF [CARM1] : FALSE
HITKTVKGGISETRIEKRIVITGD [EPB41L3] : TRUE
AGKLRLLREMCALSFQEELLYWGI [KCNG1] : FALSE
FTFLGKKCVTMSSAVVQLYAADRN [WASL] : FALSE

(Q) Could you tell me if the measured protein stability index of FDVVVCDQVSACIPVFRLARRRKK [ALG2] reaches 3 or more?
(A) FALSE

(Q) Could you tell me if the measured protein stability index of EYNYDWWEKKPFSEDVNWGYEKRN [CHGB] reaches 3 or more?
(A) TRUE

(Q) Could you tell me if the measured protein stability index of DEKINIYCLTCEVPTCSMCKVFGI [TRIM63] reaches 3 or more?
(A) FALSE

(Q) Could you tell me if the measured protein stability index of ERSRDVVDDVSVSLRLWDTFGDHH [RHOBTB2] reaches 3 or more?
(A) TRUE

(Q) Could you tell me if the measured protein stability index of NEYFFDRNRPSFDAILYYYQSGGR [KCNA3] reaches 3 or more?
(A) FALSE

(Q) Could you tell me if the measured protein stability index of YGTKKFMQELTEMLGFRPYRFYFY [SLC6A17] reaches 3 or more?
(A) FALSE

---

Assay: protein stability index of a GFP-peptide fusion (GPS, HEK-293T) (PSI 1-6); higher = more stable
Settings: treatment: DMSO; c terminus: a fixed tail appended
Catalogue of protein stability index readings, one per entry.
Would you mind answering with just the numeric figure?

LNQGSVFQEYDTDCEVFRQRFRQF [ZNF449] : 2.98

(Q) Sample TYRKVMNWKETLVFPPEVPISEKA [STK38L] — what was its protein stability index?
(A) 3.09

(Q) Sample LTDVSPEPLQALLERASATLQDLV [PRAME] — what was its protein stability index?
(A) 3.05

(Q) Sample PTQLRALNLTEGFAVLHWKPPQNP [TNXB] — what was its protein stability index?
(A) 2.8

(Q) Sample LEESDIDRDGTINLSEFQHVISRS [CIB1] — what was its protein stability index?
(A) 4.69

(Q) Sample GDRMFYRDWWNSTSFSNYYRTWNV [SOAT2] — what was its protein stability index?
(A) 2.19

(Q) Sample VDRWPAPVPGKTLHLPIMGVVMKV [DENND6A] — what was its protein stability index?
(A) 2.63

(Q) Sample AFGYFITACAVIILTIICYLGLPR [SLC29A1] — what was its protein stability index?
(A) 2.3

(Q) Sample ERQEEQSAAIHISETLEQKPHFES [EPB41L3] — what was its protein stability index?
(A) 5.43

---

Catalogue of protein stability index readings, one per entry.
Assay: protein stability index of a GFP-peptide fusion (GPS, HEK-293T) (PSI 1-6); higher = more stable
Settings: treatment: DMSO; c terminus: a fixed tail appended

Take a look at these entries with their results.
QTEETQETALTLACCGGFLEVADF [ANKRD17] : 3.79
YLLKFLLVGDSDVGKGEILESLQD [RAB40C] : 2.72
FGSLPSPKELSSFSFSMKGHEKTA [DLC1] : 3.53
TENRGNEKEFMKGNQLISNNIKFK [CLCN6] : 4.43
MQPEGLKCRMEESNAERGTAEPFP [CBY2] : 4.88
YIHSCPKMKYKGQYRPSDLLCPET [ATE1] : 2.06

(Q) Sample HRYIAYMANQEAAIQAFLDKCSAP [IQUB] — what was its protein stability index?
(A) 2.51

(Q) Sample FCDMDKSLLCLLCSNSQEHGAHKH [TRIM43] — what was its protein stability index?
(A) 2.49

(Q) Sample RSPTLEPPRGRSEAPDSLNGPLGP [SMG5] — what was its protein stability index?
(A) 4.89

(Q) Sample VRNNRSIIKQLKDVFERDWYSPYA [PLD5] — what was its protein stability index?
(A) 2.41

(Q) Sample VETLVKKKIPIISNAMLVGDKLKF [ACSBG2] — what was its protein stability index?
(A) 2.27

(Q) Sample ETIQGFWLLTKIDHWNNEKERILL [TPRG1] — what was its protein stability index?
(A) 2.59

(Q) Sample CHLCVNYIEMQTDPANCDYVIVSG [YJU2B] — what was its protein stability index?
(A) 2.71

(Q) Sample CEDLDELHYQDTDSDVPEQRDSKC [MYBL2] — what was its protein stability index?
(A) 5.65

(Q) Sample YQPKRYALSPKTTITMAHLLAARE [FAM98B] — what was its protein stability index?
(A) 2.31

---

Assay: protein stability index of a GFP-peptide fusion (GPS, HEK-293T) (PSI 1-6); higher = more stable
Details: treatment: DMSO; c terminus: a fixed tail appended
# binning rule on protein stability index: Low (below 3), Mid (3 to below 5), High (5 or more)

Example entries begin here.
RGPPRGLRGGRGGSGGTRGPPSRG [RBMX] : High
HSSWTPPNAQYWSQFHSVRPQGPQ [DNAJC4] : Mid
PCKLEKMRILAHGELVLATAISSF [TLE6] : Low
MANIHQENEEMEQPMQNGEEDRPL [BEX3] : High
ELDELASKAPVLTYGQPKQAPPAD [EFHC1] : High

(Q) Note: place this sequence into its band. Item: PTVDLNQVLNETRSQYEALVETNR [KRT34]
(A) Mid

(Q) Note: place this sequence into its band. Item: IAERLGCTLPQLAIAWCLRNEGVS [KCNAB2]
(A) Low

(Q) Note: place this sequence into its band. Item: SETLEQKPHFESSTVKTETISFGS [EPB41L3]
(A) High

(Q) Note: place this sequence into its band. Item: MAEGSAVSDPQHAARLLRALSSFR [GAN]
(A) Mid

(Q) Note: place this sequence into its band. Item: LNKPALQAQPLRTTSTLASSLPGH [EHMT1]
(A) Mid

(Q) Note: place this sequence into its band. Item: HKADSIQGTARTLSPVLESPRDLQ [TNXB]
(A) Mid

(Q) Note: place this sequence into its band. Item: HFLSKMPEAEENKQIIRKHAQTFV [CCND1]
(A) Mid

---

Assay: protein stability index of a GFP-peptide fusion (GPS, HEK-293T) (PSI 1-6); higher = more stable
Conditions: treatment: DMSO; c terminus: a fixed tail appended
measured-parameter: protein stability index
Would you mind answering with just the numeric figure?

ARTFGNEARFIRRSCTPNAEVRHE [KMT2E] : 3.2
EYGTCMCLVKGIFYHCSNDDEGDS [SPRY1] : 3.14

(Q) Sample LWSDPDDRGGWGISPRGAGYTFGQ [PPP2CA] — what was its protein stability index?
(A) 2.5

(Q) Sample FTSGFNAAALDYEADGSTNNGIFQ [SPACA3] — what was its protein stability index?
(A) 2.67

(Q) Sample AYGHRQCLELVSCFVLFSLTHTHT [ANKRD44] — what was its protein stability index?
(A) 2.52

---

Experiment: protein stability index of a GFP-peptide fusion (GPS, HEK-293T) (PSI 1-6); higher = more stable
Settings: treatment: MLN4924 1 uM, 8 h; c terminus: a fixed tail appended
measured-parameter: protein stability index
Would you mind answering with just the numeric figure?

Take a look at these entries with their results.
MDVAISNNKKWILSASKDRTMRLW [WDR88] : 2.35
LAQRTQQDSTRTVGERLQDTHSWK [TEKT4] : 4.64
YSIPEELEKGSFVGNISKDLGLAP [PCDHGA10] : 3.7
KDEDLDLFPASPTREAHRESSVPV [FBF1] : 5.02
GADPDSRDFDNNTPLHIAAQNNCP [FEM1A] : 5.18
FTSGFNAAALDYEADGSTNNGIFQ [SPACA3] : 3.48
AVMRGQILNLTQALKDNKSPLHLV [PI4K2A] : 2.3
PTWWPLPTQVPAAEDYLTWKEWGF [SPAG8] : 2.35

(Q) Sample LPREEEIVFPEKLNGSVLPGSGAP [ADAMTS4] — what was its protein stability index?
(A) 4.63

(Q) Sample ESSSRGEAGAPGEEDIQGPTKADT [CHGB] — what was its protein stability index?
(A) 5.43

(Q) Sample VRFSLGTTTHAPPGVHRRYSALRE [PPFIA4] — what was its protein stability index?
(A) 2.76

(Q) Sample VSMLGYPFILPDMVGGNAVPQRTA [MYORG] — what was its protein stability index?
(A) 2.54

(Q) Sample QELVLKVRIQNPSLRENDFIEIEL [ANKRD40] — what was its protein stability index?
(A) 2.38

(Q) Sample SASASTTTTVTAVTAEVDLFGDAF [SNAP91] — what was its protein stability index?
(A) 4.28

(Q) Sample YRGMLDTHHKLCTFILKNPPENSD [EIF5] — what was its protein stability index?
(A) 3.25

(Q) Sample AQYSVTGSAVARAVCKATTHEVMG [SNAP91] — what was its protein stability index?
(A) 3.23
